We begin with a simple list: items and their reported melting point.

Some compounds with recorded melting point:
compound: NC(=O)c1[nH]cnc1OC1OC(COCc2ccccc2)C(OCc2ccccc2)C1OCc1ccccc1 (stereo not drawn)
melting point: 215 to 216 °C

compound: CC(=O)OC1C(NC(=O)Cc2cccc3c2Cc2ccccc2-3)C(CO)OC1n1cnc2c(Cl)ncnc21 (stereo not drawn)
melting point: 196 to 197 °C

Now for a further compound.
The reported value for COc1nc(C)nc(NC(=O)NS(=O)(=O)c2ccccc2-c2ccccc2)n1 in terms of melting point is 190 to 193 °C

* * *

experimental_endpoint: melting point

molecule: OCc1nnc(-c2cc3c(OC[C@@H](O)CN4CCC(c5ccc(Cl)c(Cl)c5)CC4)cccc3o2)o1
melting point: 158 to 160 °C
//
molecule: C[C@@H]1Cc2ccsc2[C@H](C)N1CCNC(=O)c1cccs1 (relative stereo)
melting point: 111 to 113 °C
//
molecule: COc1cccc(CN=Cc2cccc(O)c2)c1
melting point: 103 °C
//
molecule: Cc1nc(-c2c(C#N)nn(-c3c(Cl)cc(C(F)(F)F)cc3Cl)c2N)cs1
melting point: 226 to 228 °C
//
molecule: Cc1c(C(=O)O)nn(-c2ccc(Cl)cc2Cl)c1-c1ccc(Cl)cc1
melting point: 211 °C
//
molecule: O=C(O)c1ccc(NCCCCCCCCCCCOc2ccccc2)cc1
melting point: 117 to 119 °C
//
molecule: COC(=O)CN(CC(=O)OC)[C@H]1CC[C@H](Nc2ncc3ncnc(Nc4ccc(F)c(Cl)c4)c3n2)CC1
melting point: 181 to 184 °C
//
molecule: CC(C)(C)OC(=O)N1CCN(c2cc(N)nc(N)n2)CC1
melting point: 176 to 179 °C

The reported value for CCOC(=O)Cc1csc(NC(=O)c2sc3ccc(OC)cc3c2OC(C)C)n1 in terms of melting point is 91 to 92 °C

The reported value for O=CNCCSc1ccc2nccn2n1 in terms of melting point is 148 to 151 °C

The reported value for COc1ccccc1Oc1cccc2c1OC(=O)C2 in terms of melting point is 171 to 172 °C

The reported value for CC(C(=O)O)c1ccc2nc3c(Cl)cc(Cl)cn3c(=O)c2c1 (stereo not given) in terms of melting point is 241 °C

The reported value for CCc1nc2ccccc2c(N)c1C(C)=O in terms of melting point is 145 to 148 °C

The reported value for ON=C1CCc2c1sc1c2CCCC1 in terms of melting point is 174 to 176 °C

The reported value for CC(=S)NCC1CN(c2ccc(N(C)C=O)c(F)c2)C(=O)O1 (stereo not given) in terms of melting point is 105 to 107 °C

The reported value for CC(C)(C)c1ccc(/C=N/OCCOc2ccc(C(=O)O)c(OC(=O)c3ccc(C(C)(C)C)cc3)c2)cc1 in terms of melting point is 148 to 150 °C

The reported value for CC(C=O)C1CCC2C3CCC4CCCCC4(C)C3CCC12C (stereo not given) in terms of melting point is 248 to 252 °C

The reported value for CCNC(=O)c1ccc(-n2nnc(C(=O)NC3CC3)c2CCCCCF)cc1 in terms of melting point is 150 °C

The reported value for CC#CC1(O)CCC2C3CCC4=CC(=O)CCC4C3C(=CF)CC21CC (stereo not given) in terms of melting point is 199 to 205 °C

The reported value for N#Cc1cc(C2CCCCC2)c(C(=O)O)cn1 in terms of melting point is 225 to 230 °C

The reported value for CCCc1nc2c(C)cccc2n1Cc1ccc(-c2ccccc2-c2nnn[nH]2)nc1 in terms of melting point is 169 to 170 °C

The reported value for Cc1ccc2ccc3c(c2c1)C(C)(C)C(=O)O3 in terms of melting point is 88 to 89 °C

The reported value for O=C(O)C=C(c1ccccc1)c1ccccc1 in terms of melting point is 162 to 164 °C

The reported value for Cc1nnc(NCCCOc2cccc(CN3CCCCC3)c2)n1C in terms of melting point is 143 to 144 °C

The reported value for COC(=O)CCC(=O)Nc1ccc2c(=O)n3c(nc2c1)C(=Cc1ccccc1)CC3 in terms of melting point is 288 to 291 °C
